Biological target: Cyclin-dependent kinase 5/CDK5 activator 1 (Homo sapiens) (UniProt Q00535+Q15078)
Sequence (Q00535 whole entry): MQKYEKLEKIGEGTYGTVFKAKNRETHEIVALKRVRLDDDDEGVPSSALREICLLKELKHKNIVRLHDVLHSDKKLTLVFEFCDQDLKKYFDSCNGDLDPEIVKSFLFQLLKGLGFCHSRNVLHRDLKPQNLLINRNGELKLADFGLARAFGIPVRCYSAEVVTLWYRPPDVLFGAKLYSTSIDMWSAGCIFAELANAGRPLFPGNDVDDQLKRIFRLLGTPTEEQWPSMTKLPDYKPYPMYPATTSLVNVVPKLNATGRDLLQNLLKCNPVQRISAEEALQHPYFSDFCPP
Sequence (Q15078 99-307 partner limits assumed): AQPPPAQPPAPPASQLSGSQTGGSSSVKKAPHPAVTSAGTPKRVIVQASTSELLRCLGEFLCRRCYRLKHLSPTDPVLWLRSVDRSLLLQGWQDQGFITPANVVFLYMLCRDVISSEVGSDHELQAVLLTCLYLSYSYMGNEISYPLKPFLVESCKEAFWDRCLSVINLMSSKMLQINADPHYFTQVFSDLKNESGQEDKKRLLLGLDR
Test: Inhibition of human CDK5/p25 assessed as residual activity at 10 uM by ADP-Glo assay relative to control
Type: protein-complex assay
I'd appreciate it if you marked entries YES when Activity is lower than 90% and NO when it is not.

- Clc1cccc(Nc2ncc3cccc(OCc4cn(Cc5ccccc5)nn4)c3n2)c1: YES

Does Cc1ccc(-n2cc(COc3cccc4cnc(Nc5cccc(Cl)c5)nc34)nn2)c([N+](=O)[O-])c1 have Activity strictly under 90%?
YES

Does Clc1ccc(-n2cc(COc3cccc4cnc(Nc5cccc(Cl)c5)nc34)nn2)cc1 have Activity strictly under 90%?
NO

Does COc1ccccc1-n1cc(COc2cccc3cnc(Nc4cccc(Cl)c4)nc23)nn1 have Activity strictly under 90%?
NO

These data points were gathered from ChEMBL document CHEMBL4680342.
